- testSystem: T1, RSV postfusion F (postF), subtype A (respiratory syncytial virus, subtype A, UniProt P03420 26-513)
- T1 construct: also called F ΔFP; Postfusion subtype A
- procedureText: BLI, IgG
Parameter: pKd. Scope: all listed entries.
Give only the number. pKd is defined as minus log10 of concentration in molar units.

>>> quantitativeresult("ADI-21022 (antibody, V domains shown) VH: EVQLVETGPGLVKPSETLSLTCSVSGGSISSYYWSWLRQPPGKGLEWIGYIYNSGRTNYNPSLRSRVTISVDTSQNQFSLRLGSVTAADTAVYYCARGGAGDDLLRGSYRYLNFWGQGTLVTVSS VL: QSVLTQPPSVSVAPGQTARITCGGNNIGSKSVHWYQQKPGQAPVLVVYDDTERPSGIPERISGSNSGNTATLTISRVEAGDEADYYCQVWDSSSDHPDLLFGGGTKLTVL")
9.59
>>> quantitativeresult("ADI-20996 (antibody, V domains shown) VH: QVQLVESGPALVKPTQTLTLTCTFSGFSLTTRGMCVSWIRQPPGKALEWLARIDWDDDKYYSTSLKTRLTISKDTSKNQVVLTMTNMDPVDTATYYCARASTLTTAGYYLHYKDVWGNGTTVTVSS VL: DIRMTQSPSSLSASVGDRVTITCRASQSIGTYLNWFQQKPGKAPNLLIYAASILHSGVPSRFSGSGSGTDFTLTIRTLQPEDFATYYCQQSYPTVTFGQGTKVEIK")
9.69

For the next question, use this binder.
Q: Look up pKd: ADI-14607 (antibody, V domains shown) VH: EVQLLESGGGVVQSGRSLRLSCAASGFTFNNYAMHWVRQAPGKGLEWVAVISFDGGNKFYGDSVQGRFTISRDNSKNTLYLQTNSLRPEDTAVYYCARDRWEIQIGLDIWGQGTTVTVSS VL: SYVLTQPPSVSVSPGQTARITCSGDALARQNAYWYQQKPGQAPVLVMYRDTGRPSGIPERFSGSSSGTTVTLTISEVQAEDEADYYCQSADSSGAYVFGTGTKVTVL
Ans: 9.42
